Documented Ki across a set of molecules
Tested on: induction of TAT by dexamethasone in HepG2 cells
Test: HepG2 tyrosine aminotransferase (TAT) assay
Format: cell-based, human
Settings: HepG2 cells, challenge of 100 nM dexamethasone; Ki from IC50 by Cheng and Prusoff equation
Description: Example 21. HepG2 Tyrosine Aminotransferase (TAT) Assay Glucocorticoid mediated activation of TAT occurs by transactivation of glucocorticoid response elements in the TAT promoter by glucocorticoid receptor agonist complex. TAT activity was measured as outlined in the literature by A. Ali et al., J. Med. Chem., 2004, 47, 2441-2452. HepG2 cells were cultured using MEME media supplemented with 10% (v/v) foetal bovine serum; 2 mM L-glutamine and 1% (v/v) NEAA at 37° C., 5%/95% (v/v) CO2/air. […]

{"MOLECULE": "CCc1ccnc(C(=O)[C@]23Cc4cnn(-c5ccc(F)cc5)c4C=C2CCN(S(=O)(=O)c2cccc(C(F)(F)F)n2)C3)c1 [Example 11AV]", "Ki": "< 20 nM"}

Q: # lookup: Ki of Cc1ccnc(C(=O)[C@]23Cc4cnn(-c5ccc(F)cc5)c4C=C2CCN(S(=O)(=O)c2ccc4c(c2)OCCO4)C3)c1 [Example 11AR]
A: < 20 nM

Q: Query (molecule): CCn1nccc1S(=O)(=O)N1CCC2=Cc3c(cnn3-c3ccc(F)cc3)C[C@]2(C(=O)c2cscn2)C1 [Example 11CW] ; field requested: Ki
A: 20 to 100 nM

Q: Name the reported Ki value associated with the molecule Cc1ccnc(C(=O)[C@]23Cc4cnn(-c5ccc(F)cc5)c4C=C2CCN(S(=O)(=O)c2cnc4c(c2)OCCN4C)C3)c1 [Example 11AM]
A: < 20 nM

Q: Recorded Ki of CN(C)C(=O)c1cccc(S(=O)(=O)N2CCC3=Cc4c(cnn4-c4ccc(F)cc4)C[C@]3(C(=O)c3ccccn3)C2)c1 [Example 14] , please.
A: 20 to 100 nM

Q: Entry Cc1nnc(C(=O)[C@]23Cc4cnn(-c5ccc(F)cc5)c4C=C2CCN(S(=O)(=O)c2ccc(C(F)(F)F)cc2)C3)o1 [Example 1D] has what Ki?
A: ≥ 100 nM

Q: Which value of Ki has been reported for Cc1nc(S(=O)(=O)N2CCC3=Cc4c(cnn4-c4ccc(F)cc4)C[C@]3(C(=O)c3cc(C(F)(F)F)ccn3)C2)cn1C [Example 11BV] in the records?
A: < 20 nM

Q: Please look up its Ki: O=C(c1cscn1)[C@]12Cc3cnn(-c4ccc(F)cc4)c3C=C1CCN(S(=O)(=O)c1ccc(Cl)c(Cl)c1)C2 [Example 19]
A: < 20 nM

Q: Entry O=C(c1ccccn1)[C@]12Cc3cnn(-c4ccc(F)cc4)c3C=C1CCN(S(=O)(=O)c1ccc(N3CCCC3)cc1)C2 [Example 10] has what Ki?
A: ≥ 100 nM

Q: Field request: Ki | item: CCn1cc(S(=O)(=O)N2CCC3=Cc4c(cnn4-c4ccc(F)cc4)C[C@]3(C(=O)c3cscn3)C2)cn1 [Example 11BZ]
A: 20 to 100 nM

Q: Give the measured Ki of CN(C)c1ccc(S(=O)(=O)N2CCC3=Cc4c(cnn4-c4ccc(F)cc4)C[C@]3(C(=O)c3ccccn3)C2)cn1 [Example 16] .
A: 20 to 100 nM

Q: For the molecule CCn1nncc1S(=O)(=O)N1CCC2=Cc3c(cnn3-c3ccc(F)cc3)C[C@]2(C(=O)c2ccccn2)C1 [Example 11CI] , what Ki is on record?
A: 20 to 100 nM

Q: Please give the measured Ki for this molecule: CCc1ccc(S(=O)(=O)N2CCC3=Cc4c(cnn4-c4ccc(F)cc4)C[C@]3(C(=O)c3ccccn3)C2)cc1 [Example 2D]
A: < 20 nM

Q: Using the record for O=C(c1ccccn1)[C@]12Cc3cnn(-c4ccc(F)cc4)c3C=C1CCN(S(=O)(=O)c1ccc(C(F)(F)F)nc1)C2 [Example 2N] , report its Ki.
A: < 20 nM

Q: Which value of Ki has been reported for Cc1ccnc(C(=O)[C@]23Cc4cnn(-c5ccc(F)cc5)c4C=C2CCN(S(=O)(=O)c2cnn(C)c2)C3)c1 [Example 11T] in the records?
A: < 20 nM
